The values you see were collected from PubChem BioAssay AID1963970.

System: 931267-113-T-J1-PDC multicell spheroid viability;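 also: viability read 7 days after compound addition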
Assay: Anticancer human tumor 931267-113-T-J1-PDC patient-derived colon adenocarcinoma cell line growth inhibition [PI3K]
Settings: second compound 0.0316 µM; first compound 1 µM; hits give low values
measured_property: viability, T/C (%)
Provide only the numeric value, understood in %.

As a guide, the following entries are already answered.
Sample CNC(=O)c1ccc(N2C(=S)N(c3ccc(C#N)c(C(F)(F)F)c3)C(=O)C2(C)C)cc1F + Cc1nc(NC(=O)N2CCCC2C(N)=O)sc1-c1ccnc(C(C)(C)C(F)(F)F)c1 ; viability, T/C observed: 105

Sample CC1(C)CCC(Nc2ncc(C(F)(F)F)c(-c3c[nH]c4c(P(C)(C)=O)c(C#N)ccc34)n2)CN1 (stereo not given) + COc1c(OCCCN2CCOCC2)ccc2c3n(c(=NC(=O)c4cnc(N)nc4)nc12)CCN3 ; viability, T/C observed: 67.1

Sample CCCS(=O)(=O)Nc1ccc(F)c(C(=O)c2c[nH]c3ncc(-c4ccc(Cl)cc4)cc23)c1F + CC(Nc1ccc2c(c1)OCCn1cc(N3C(=O)OCC3C(F)F)nc1-2)C(N)=O ; viability, T/C observed: 119

Sample CC1(C)CCC(Nc2ncc(C(F)(F)F)c(-c3c[nH]c4c(P(C)(C)=O)c(C#N)ccc34)n2)CN1 (stereo not given) + CC(Nc1ncnc2nc[nH]c12)c1cc2cccc(Cl)c2c(=O)n1-c1ccccc1 ; viability, T/C observed: 88.5

Turning now to a further record.
Sample CC1(C)CCC(CN2CCN(c3ccc(C(=O)NS(=O)(=O)c4ccc(NCC5CCOCC5)c([N+](=O)[O-])c4)c(Oc4cnc5[nH]ccc5c4)c3)CC2)=C(c2ccc(Cl)cc2)C1 + CC(Nc1ncnc2nc[nH]c12)c1cc2cccc(Cl)c2c(=O)n1-c1ccccc1 ; viability, T/C observed: 110
